Target: GLP-1 Receptor (Homo sapiens)
Sequence (P43220 24-463): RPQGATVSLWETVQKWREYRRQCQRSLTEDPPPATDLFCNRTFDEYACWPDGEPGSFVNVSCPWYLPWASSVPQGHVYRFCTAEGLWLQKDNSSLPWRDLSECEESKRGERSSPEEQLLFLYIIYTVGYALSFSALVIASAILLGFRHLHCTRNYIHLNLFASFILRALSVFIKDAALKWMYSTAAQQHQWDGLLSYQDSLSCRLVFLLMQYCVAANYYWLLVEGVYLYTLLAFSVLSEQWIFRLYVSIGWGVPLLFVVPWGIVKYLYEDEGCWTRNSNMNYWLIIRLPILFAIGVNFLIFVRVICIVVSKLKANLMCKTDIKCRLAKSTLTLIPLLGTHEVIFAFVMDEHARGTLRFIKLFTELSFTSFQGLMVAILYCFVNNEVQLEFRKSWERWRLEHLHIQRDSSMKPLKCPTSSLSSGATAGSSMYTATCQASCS
Assay: GLP-1R agonist cAMP stimulation assay (HEK293/GLP1R/CRE-Luc cells, HTRF cAMP)
Type: cell-based
Conditions: HEK293/CRE-Luc cells stably expressing GLP-1 Receptor; 30 min, 37° C.
ASSAY_ENDPOINT: GLP1R cAMP Stimulation DR: pEC50

Below are worked cases with known answers.
1. O=C(O)c1ccc2nc(CN3CCC(Oc4ccc(F)c(Cc5ccc(Cl)cc5F)n4)CC3)n(C[C@@H]3CCO3)c2n1 [Compound 150a]
7.2
2. O=C(O)c1ccc2nc(CN3CCC(Oc4cccc(Cc5ccc(Cl)cc5)c4Cl)CC3)n(C[C@@H]3CCO3)c2n1 [Compound 158a]
<6.0
3. O=C(O)c1ccc2nc(CN3CCC(n4ncc5ccc(Cc6ccc(Cl)cc6F)nc54)CC3)n(C[C@@H]3CCO3)c2n1 [Compound 185a]
9.3
4. CCOCCn1c(CN2CCC(Oc3ccnc(Cc4ccc(Cl)cc4)n3)CC2)nc2ccc(C(=O)O)nc21
8.5
5. O=C(O)c1cnc2nc(CN3CCC(Oc4ccnc(Cc5ccc(Cl)cc5F)n4)CC3)n(C[C@@H]3CCO3)c2c1 [Compound 161a]
9.7
6. O=C(O)c1ccc2nc(CN3CCC(Oc4ccnc(Cc5ccc(Cl)cc5)n4)CC3)n(C[C@H]3CCOC3)c2n1 [Compound 196a]
8.9
7. O=C(O)c1ccc2nc(CN3CCC(Oc4ccnc(Cc5ccc(F)cc5F)n4)CC3)n(C[C@@H]3CCO3)c2n1 [Compound 165a]
9.4
8. O=C(O)c1ccc2nc(CN3CCC(Oc4cccc(Cc5ccc(Cl)cc5F)n4)C3)n(C[C@@H]3CCO3)c2n1 (stereo partly drawn) [Compound 130a]
7.3
9. Cn1c(C[C@H]2CC[C@H](Oc3ccnc(Cc4ccc(Cl)cc4)n3)CC2)nc2ccc(C(=O)O)nc21 [Compound 180a]
8.6
10. O=C(O)c1ccc2nc(CN3CCC(Oc4nc(Cc5ccc(Cl)cc5F)ncc4F)CC3)n(C[C@@H]3CCO3)c2n1 [Compound 151a]
10.1

Ask: Returns the measured GLP1R cAMP Stimulation DR: pEC50 for the input compound. Input: O=C(O)c1ccc2nc(CN3CCC(Oc4cccc(Cc5cccc(Cl)c5)n4)CC3)n(C[C@@H]3CCO3)c2n1 [Compound 125a]
Reply: 8.9

Ask: Returns the measured GLP1R cAMP Stimulation DR: pEC50 for the input compound. Input: O=C(O)c1ccc2nc(CN3CCC(Oc4cc(Cc5ccc(Cl)cc5F)ccc4F)CC3)n(C[C@@H]3CCO3)c2n1 [Compound 114a]
Reply: 8.8

Ask: Returns the measured GLP1R cAMP Stimulation DR: pEC50 for the input compound. Input: O=C(O)c1ccc2nc(CN3CCC(Oc4ccnc(Cc5ccc(Cl)cc5F)n4)CC3)n(C[C@@H]3CCO3)c2c1 [Compound 160a]
Reply: 9.9

Ask: Returns the measured GLP1R cAMP Stimulation DR: pEC50 for the input compound. Input: O=C(O)c1ccc2nc(C[C@H]3CC[C@H](Oc4ccnc(Cc5ccc(Cl)cc5F)n4)CC3)n(C[C@@H]3CCO3)c2n1 [Compound 175b]
Reply: 10.2

Ask: Returns the measured GLP1R cAMP Stimulation DR: pEC50 for the input compound. Input: O=C(O)c1ccc2nc(CN3CCC(Oc4nn(Cc5ccc(Cl)cc5F)cc4Cl)CC3)n(C[C@@H]3CCO3)c2n1 [Compound 183a]
Reply: 9.1

Ask: Returns the measured GLP1R cAMP Stimulation DR: pEC50 for the input compound. Input: O=C(O)c1ccc2nc(CN3CCC(Oc4ccnc(Cc5ccc(Cl)cc5)n4)CC3)n(C[C@@H]3CCO3)c2n1 [Compound 152a]
Reply: 10.4

Ask: Returns the measured GLP1R cAMP Stimulation DR: pEC50 for the input compound. Input: O=C(O)c1ccc2nc(CN3CCC(Oc4nc(Cc5ccc(Cl)cc5F)ccc4F)CC3)n(C[C@@H]3CCO3)c2n1 [Compound 111a]
Reply: 9.5

Ask: Returns the measured GLP1R cAMP Stimulation DR: pEC50 for the input compound. Input: N#CC1(Cn2c(CN3CCC(Oc4ccnc(Cc5ccc(Cl)cc5F)n4)CC3)nc3ccc(C(=O)O)cc32)CC1
Reply: 10.1
